# STUDY_TARGET: BCL6 (Homo sapiens, UniProt P41182)
# Construct: endogenous in cells; host or cells: T47D breast cancer epithelial cells
# MEASUREMENT_NOTES: Immunofluorescence protocol for high content imaging of BCL6 (degradation) in T47D cells, 3 days compound treatment
# Format: cell-based
# MEASUREMENT_CONDITIONS: T47D cells, 3 days compound treatment, read-out: Mean Dmax (%)** category
READOUT_TYPE: Dmax

COMPOUND: CNC(=O)COc1cc2cc(Nc3nc(N4CCC(C(C)(C)N5CCC6(CC5)CN(c5ccc7c(c5)C(=O)N(C5CCC(=O)NC5=O)C7=O)C6)CC4)ncc3Cl)ccc2n(C(C)C)c1=O (centres unmarked) [Compound 45]
STUDY_TARGET: BCL6 (Homo sapiens, UniProt P41182)
READING: 50 to 70%
--
COMPOUND: CNC(=O)COc1cc2cc(Nc3nc(N4CCC(O[C@H]5C[C@H](N6C[C@@H](C)N(c7ccc8c(c7C)C(=O)N(C7CCC(=O)NC7=O)C8=O)C[C@@H]6C)C5)CC4)ncc3Cl)ccc2n(C(C)C)c1=O (some centres unmarked) [Compound 207]
STUDY_TARGET: BCL6 (Homo sapiens, UniProt P41182)
READING: ≥ 70%
--
COMPOUND: CNC(=O)COc1cc2cc(Nc3nc(N4CCC(OC5CN([C@H]6CC[C@H](c7ccc8c(c7F)CN(C7CCC(=O)NC7=O)C8=O)CC6)C5)CC4)ncc3Cl)ccc2n(C(C)C)c1=O (some centres unmarked) [Compound 183]
STUDY_TARGET: BCL6 (Homo sapiens, UniProt P41182)
READING: ≥ 70%
--
COMPOUND: CNC(=O)COc1cc2cc(Nc3nc(N4CCC(CN5CCC6(CC5)CN(c5ccc7c(c5)C(=O)N(C5CCC(=O)NC5=O)C7=O)C6)CC4)ncc3Cl)cc(F)c2n(C(C)C)c1=O (centres unmarked) [Compound 111]
STUDY_TARGET: BCL6 (Homo sapiens, UniProt P41182)
READING: 50 to 70%
--
COMPOUND: CNC(=O)COc1cc2cc(Nc3nc(N4CCC(CN5CCC6(CN(c7ccc8c(c7)C(=O)N(C7CCC(=O)NC7=O)C8=O)C6)C(F)(F)C5)CC4)ncc3Cl)ccc2n(CCOC)c1=O (centres unmarked) [Compound 126]
STUDY_TARGET: BCL6 (Homo sapiens, UniProt P41182)
READING: < 50%

* * *

# STUDY_TARGET: BCL6 (Homo sapiens, UniProt P41182)
# Construct: endogenous in cells; host or cells: T47D breast cancer epithelial cells
# MEASUREMENT_NOTES: Immunofluorescence protocol for high content imaging of BCL6 (degradation) in T47D cells, 3 days compound treatment
# Type: cell-based
# MEASUREMENT_CONDITIONS: T47D cells, 3 days compound treatment, read-out: Mean DC50 (nM)* category
// DC50 lookup, one value per entry

COMPOUND: CNC(=O)COc1cc2cc(Nc3nc(N4CCC5(CCN(CC6(F)CCN(c7ccc(F)c8c7CN(C7CCC(=O)NC7=O)C8=O)CC6)CC5)CC4)ncc3Cl)ccc2n(C(C)C)c1=O (centres unmarked) [Compound 129]
DC50: < 10 nM

COMPOUND: CNC(=O)COc1cc2cc(Nc3nc(N4CCC(O[C@H]5C[C@H](N6CCN(c7ccc8c(c7)CN(C7CCC(=O)NC7=O)C8=O)C(C)(C)C6)C5)CC4)ncc3Cl)ccc2n(C(C)C)c1=O (some centres unmarked) [Compound 170]
DC50: < 10 nM

COMPOUND: CNC(=O)COc1cc2cc(Nc3nc(N4CCC(OC5CCC6(CCN(c7ccc8c(c7)CN(C7CCC(=O)NC7=O)C8=O)C6)C5)CC4)ncc3Cl)ccc2n(C(C)C)c1=O (centres unmarked) [Compound 98]
DC50: < 10 nM

COMPOUND: CNC(=O)COc1cc2cc(Nc3nc(N4CCC(O[C@H]5C[C@H](N6CCC(c7c(F)cc8c(c7F)CN(C7CCC(=O)NC7=O)C8=O)CC6)C5)CC4)ncc3Cl)ccc2n(C(C)C)c1=O (some centres unmarked) [Compound 116]
DC50: < 10 nM

COMPOUND: CNC(=O)COc1cc2cc(Nc3nc(N4CCN(C(C)(C)C5CCN(c6ccc7c(c6)CN(C6CCC(=O)NC6=O)C7=O)CC5)CC4)ncc3Cl)ccc2n(C(C)C)c1=O (centres unmarked) [Compound 13]
DC50: < 10 nM

COMPOUND: CNC(=O)COc1cc2cc(Nc3nc(N4CCC(F)(CN5CCC6(CC5)CCN(c5cc(F)cc7c5CN(C5CCC(=O)NC5=O)C7=O)CC6)CC4)ncc3Cl)ccc2n(C(C)C)c1=O (centres unmarked) [Compound 73]
DC50: < 10 nM

COMPOUND: CNC(=O)COc1cc2cc(Nc3nc(N4CCC(O[C@H]5C[C@H](N6CC[C@H](c7ccc8c(c7)C(=O)N(C7CCC(=O)NC7=O)C8)[C@H](F)C6)C5)CC4)ncc3Cl)ccc2n(C(C)C)c1=O (mixture of isomers) [Compound 132]
DC50: < 10 nM

COMPOUND: CNC(=O)COc1cc2cc(Nc3nc(N4CCC(F)(CN5CCC6(CC5)CCN(c5c(F)ccc7c5CN(C5CCC(=O)NC5=O)C7=O)CC6)CC4)ncc3Cl)ccc2n(C(C)C)c1=O (centres unmarked) [Compound 151]
DC50: < 10 nM

COMPOUND: CNC(=O)COc1cc2cc(Nc3nc(N4CCN(CC5(F)CCN(c6ccc7c(c6)CN(C6CCC(=O)NC6=O)C7=O)CC5)CC4)ncc3Cl)ccc2n(C(C)C)c1=O (centres unmarked) [Compound 113]
DC50: < 10 nM

COMPOUND: CNC(=O)COc1cc2cc(Nc3nc(N4CCN(CC5CCN(c6ccc(F)c7c6CN(C6CCC(=O)NC6=O)C7=O)CC5)CC4)ncc3Cl)ccc2n(C(C)C)c1=O (centres unmarked) [Compound 120]
DC50: < 10 nM

COMPOUND: CNC(=O)COc1cc2cc(Nc3nc(N4CCC(OC5CCN(c6ccc7c(c6)CN(C6CCC(=O)NC6=O)C7=O)CC5)CC4)ncc3Cl)ccc2n(C(C)C)c1=O (centres unmarked) [Compound 28]
DC50: < 10 nM

COMPOUND: CNC(=O)COc1cc2cc(Nc3nc(N4CCC(F)(CN5CCC6(CC5)CN(c5cccc7c5C(=O)N(C5CCC(=O)NC5=O)C7=O)C6)CC4)ncc3Cl)ccc2n(C(C)C)c1=O (centres unmarked) [Compound 44]
DC50: < 10 nM

COMPOUND: CNC(=O)COc1cc2c(F)c(Nc3nc(N4CCC(O[C@H]5C[C@H](N6CCN(c7ccc8c(c7C)C(=O)N(C7CCC(=O)NC7=O)C8=O)[C@H](C)C6)C5)CC4)ncc3Cl)ccc2n(C(C)C)c1=O (some centres unmarked) [Compound 199]
DC50: < 10 nM

COMPOUND: CNC(=O)COc1cc2cc(Nc3nc(N4CCOC5(CN(CC6CCN(c7ccc8c(c7)C(=O)N(C7CCC(=O)NC7=O)C8=O)CC6)C5)C4)ncc3Cl)ccc2n(C(C)C)c1=O (centres unmarked) [Compound 142]
DC50: ≥ 100 nM

COMPOUND: CNC(=O)COc1cc2cc(Nc3nc(N4CCC(CN5CCC6(CC5)CN(c5ccc7c(c5)C(=O)N(C5CCC(=O)NC5=O)C7=O)C6)CC4)ncc3Cl)cc(F)c2n(C(C)C)c1=O (centres unmarked) [Compound 111]
DC50: < 10 nM

COMPOUND: CNC(=O)COc1cc2cc(Nc3nc(N4CCC(C(=O)N5CCC6(CCN(c7ccc8c(c7)CN(C7CCC(=O)NC7=O)C8=O)C6)C5)CC4)ncc3Cl)ccc2n(C(C)C)c1=O (centres unmarked) [Compound 47]
DC50: < 10 nM

COMPOUND: CNC(=O)COc1cc2cc(Nc3nc(N4CCC(O[C@H]5C[C@H](N6C[C@H](C)N(c7ccc8c(c7)CN(C7CCC(=O)NC7=O)C8=O)[C@@H](C)C6)C5)CC4)ncc3Cl)ccc2n(C(C)C)c1=O (relative stereo) [Compound 180]
DC50: < 10 nM

COMPOUND: CC[C@H]1CN([C@H]2C[C@H](OC3CCN(c4ncc(Cl)c(Nc5ccc6c(c5)cc(OCC(=O)NC)c(=O)n6C(C)C)n4)CC3)C2)CCN1c1ccc2c(c1Cl)CN(C1CCC(=O)NC1=O)C2=O (some centres unmarked) [Compound 196]
DC50: < 10 nM

COMPOUND: CNC(=O)COc1cc2cc(Nc3nc(N4CCC(CN5CCC6(CCN(c7c(F)ccc8c7C(=O)N(C7CCC(=O)NC7=O)C8=O)C6)C5)CC4)ncc3Cl)ccc2n(C(C)C)c1=O (centres unmarked) [Compound 139]
DC50: < 10 nM

COMPOUND: CNC(=O)COc1cc2cc(Nc3nc(N4CCOC5(CN(CC6CCN(c7cccc8c7C(=O)N(C7CCC(=O)NC7=O)C8=O)CC6)C5)C4)ncc3Cl)ccc2n(C(C)C)c1=O (centres unmarked) [Compound 143]
DC50: ≥ 100 nM
